Target: Sphingosine 1-phosphate receptor 4 (Homo sapiens)
Sequence (O95977 whole entry): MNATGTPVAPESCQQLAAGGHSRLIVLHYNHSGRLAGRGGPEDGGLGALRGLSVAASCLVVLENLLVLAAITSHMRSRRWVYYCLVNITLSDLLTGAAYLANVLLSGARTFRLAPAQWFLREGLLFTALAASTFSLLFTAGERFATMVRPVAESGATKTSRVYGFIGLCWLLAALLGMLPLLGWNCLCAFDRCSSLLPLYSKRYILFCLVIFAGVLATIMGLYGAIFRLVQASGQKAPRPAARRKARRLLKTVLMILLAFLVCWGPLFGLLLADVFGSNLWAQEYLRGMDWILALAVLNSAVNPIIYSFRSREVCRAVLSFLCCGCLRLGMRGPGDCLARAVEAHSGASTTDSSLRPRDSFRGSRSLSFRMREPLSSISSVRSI
pIC50: −log10 of the molar value.
Overview of reported pIC50 across a group of compounds:

- chem.smiles: "CCCCCCCCOc1ccc(-c2c[nH]c([C@@](C)(N)COP(=O)(O)O)n2)cc1F"
  pIC50: 8.72
- chem.smiles: "CCCCCCCCOc1ccc(NC(=O)[C@@](C)(N)COP(=O)(O)O)cc1"
  pIC50: 8.40
- chem.smiles: "CCCCCCCCOc1ccc(-c2c[nH]c([C@@](C)(N)COP(=O)(O)O)n2)cc1"
  pIC50: 8.96
- chem.smiles: "CCCCCCCCCCCCC/C=C/[C@@H](O)[C@@H](N)COP(=O)(O)O"
  pIC50: 8.62
